Data provenance: patent US11447466B2

Target: human TLR7 (Homo sapiens)
Sequence (Q9NYK1 27-1049): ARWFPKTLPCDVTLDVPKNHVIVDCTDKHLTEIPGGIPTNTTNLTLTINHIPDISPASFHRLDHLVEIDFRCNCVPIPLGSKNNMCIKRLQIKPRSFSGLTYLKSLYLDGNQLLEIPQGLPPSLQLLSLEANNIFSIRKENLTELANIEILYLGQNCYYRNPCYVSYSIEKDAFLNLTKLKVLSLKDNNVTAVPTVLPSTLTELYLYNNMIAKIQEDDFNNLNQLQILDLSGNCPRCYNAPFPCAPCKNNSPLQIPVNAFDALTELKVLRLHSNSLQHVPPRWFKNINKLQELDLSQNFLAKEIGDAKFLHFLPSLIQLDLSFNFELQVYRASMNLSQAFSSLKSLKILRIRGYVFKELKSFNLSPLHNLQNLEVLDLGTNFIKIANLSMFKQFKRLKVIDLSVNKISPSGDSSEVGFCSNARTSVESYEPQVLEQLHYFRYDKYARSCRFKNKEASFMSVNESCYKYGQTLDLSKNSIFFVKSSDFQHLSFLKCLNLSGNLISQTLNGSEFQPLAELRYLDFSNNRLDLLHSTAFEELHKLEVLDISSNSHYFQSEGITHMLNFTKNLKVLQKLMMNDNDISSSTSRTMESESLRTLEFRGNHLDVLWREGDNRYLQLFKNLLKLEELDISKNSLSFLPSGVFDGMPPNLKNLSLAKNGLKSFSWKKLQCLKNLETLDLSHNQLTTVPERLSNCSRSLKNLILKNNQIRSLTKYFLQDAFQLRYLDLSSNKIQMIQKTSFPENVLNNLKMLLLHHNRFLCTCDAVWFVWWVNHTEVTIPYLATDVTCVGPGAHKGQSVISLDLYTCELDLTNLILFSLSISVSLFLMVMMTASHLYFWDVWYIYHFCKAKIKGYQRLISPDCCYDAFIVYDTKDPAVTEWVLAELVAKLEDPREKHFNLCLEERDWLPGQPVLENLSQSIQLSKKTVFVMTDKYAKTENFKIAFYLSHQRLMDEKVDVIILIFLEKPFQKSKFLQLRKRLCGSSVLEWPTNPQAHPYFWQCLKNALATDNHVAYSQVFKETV
Assay: TLR7 inhibition reporter assay (HEK-Blue SEAP reporter, gardiquimod stimulation)
Conditions: HEK-Blue cells overexpressing human TLR7, SEAP reporter, gardiquimod 7.5 μM, 22 hour incubation
observed-property: IC50 (nM)
Give a bare numeral; the unit nM is implied.

Study these solved cases before continuing.
1) Cc1cc(-c2[nH]c3ccc(C4CCN(C(=O)[C@H]5C[C@H](O)CN5)CC4)cc3c2C(C)C)cn(C)c1=O [Example 292]    7.2
2) CC(C)c1c(-c2ccc(=O)n(C)c2)[nH]c2ccc(C3CCNCC3)cc12 [Example 1]    27.5
3) COCCOCCN1CCC(c2ccc3[nH]c(-c4cn(C)c(=O)c(Cl)c4C)c(C(C)C)c3c2)CC1 [Example 101]    12.8
4) Cc1cc(-c2[nH]c3ccc(C4CCN(C5CCOC5)CC4)cc3c2C(C)C)cn(C)c1=O (stereo not shown) [Example 180]    7
5) CN[C@@H](C)C(=O)N1CCC(c2ccc3[nH]c(-c4cc(C)c(=O)n(C)c4)c(C(C)C)c3c2)CC1 [Example 297]    4.4
6) Cc1cc(-c2[nH]c3ccc(C4CCN(C)CC4)cc3c2C(C)C)cn(CC(F)(F)F)c1=O [Example 265]    20.1

Quick check: IC50 of Cc1cc(-c2[nH]c3ccc(C4CCN(CC(=O)N(C)C)CC4)cc3c2C(C)C)cn(CCO)c1=O [Example 167] ? 61.7
